A collection of molecules and their measured pIC50
assay-target: D(2) dopamine receptor (Rattus norvegicus, UniProt P61169)
Sequence (P61169 whole entry): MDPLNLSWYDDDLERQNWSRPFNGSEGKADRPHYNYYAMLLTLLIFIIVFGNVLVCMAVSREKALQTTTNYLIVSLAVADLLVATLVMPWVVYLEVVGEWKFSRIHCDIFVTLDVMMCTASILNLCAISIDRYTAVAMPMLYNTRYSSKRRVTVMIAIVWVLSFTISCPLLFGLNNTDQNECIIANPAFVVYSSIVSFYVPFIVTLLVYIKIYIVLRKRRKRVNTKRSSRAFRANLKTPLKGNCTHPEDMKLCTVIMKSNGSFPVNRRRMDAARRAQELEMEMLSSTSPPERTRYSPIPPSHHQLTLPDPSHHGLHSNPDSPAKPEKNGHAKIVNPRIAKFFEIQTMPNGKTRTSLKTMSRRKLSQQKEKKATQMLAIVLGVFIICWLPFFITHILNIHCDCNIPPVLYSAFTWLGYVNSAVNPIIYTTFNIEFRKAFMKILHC
experiment-description: Displacement of [3H]raclopride from dopamine D2 receptor in Wistar rat striatal membrane by liquid scintillation counting
For clarity, pIC50 is expressed as the negative log10 of concentration in mol/L.

# smiles-code, pIC50
measured = [
    ("COc1ccc(C[C@H]2c3c(cc(OC)c4c3Oc3cc5c(cc3O4)CCN(C)C5=O)CCN2C)cc1-c1cc(C=O)ccc1O", 4.09),
]

query: Dear colleague, please send me the reported pIC50 for COc1cc2c(cc1OC)[C@@H](Cc1ccc(Oc3cc(C[C@H]4c5cc(OC)c(OC)cc5CCN4C)ccc3OC)cc1)N(C)CC2 when you can.
result: 5.84

query: State, in one line, measured pIC50 of COc1cc2c(cc1O)[C@@H](Cc1ccc(O)c(Oc3ccc(C[C@H]4c5cc(O)c(OC)cc5CCN4C)cc3)c1)N(C)CC2
result: 6.52

query: Annotate the molecule COc1cc2c3cc1Oc1c(O)c(OC)cc4c1[C@H](Cc1ccc(OC)c(c1)-c1cc(ccc1O)C[C@H]3N(C)CC2)N(C)CC4 with its measured pIC50.
result: 5.50

----------
Measured IC50, listed per entry for reference.
assay-target: D(1A) dopamine receptor (Rattus norvegicus, UniProt P18901)
Sequence (P18901 whole entry): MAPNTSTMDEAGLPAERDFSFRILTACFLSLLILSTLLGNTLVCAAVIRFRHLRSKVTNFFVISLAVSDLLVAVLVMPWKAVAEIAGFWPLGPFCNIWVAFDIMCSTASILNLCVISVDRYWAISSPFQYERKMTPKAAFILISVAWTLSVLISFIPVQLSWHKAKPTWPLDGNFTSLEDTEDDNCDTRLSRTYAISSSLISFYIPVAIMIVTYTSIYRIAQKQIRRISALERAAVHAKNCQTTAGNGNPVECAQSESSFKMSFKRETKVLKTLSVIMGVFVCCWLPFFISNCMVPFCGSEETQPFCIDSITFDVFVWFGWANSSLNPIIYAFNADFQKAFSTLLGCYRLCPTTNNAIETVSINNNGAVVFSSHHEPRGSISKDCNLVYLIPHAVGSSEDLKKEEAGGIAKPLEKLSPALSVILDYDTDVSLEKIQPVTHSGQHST
experiment-description: Displacement of [3H]SCH23390 from dopamine D1 receptor in Wistar rat striatal membrane by liquid scintillation counting
Supply the numeric figure in µM, leaving out any unit text.

Worked set:
# smiles-code, IC50, µM
rows = [
    ("COc1cc2c3cc1Oc1c(O)c(OC)cc4c1[C@H](Cc1ccc(OC)c(c1)-c1cc(ccc1O)C(=O)[C@H]3N(C)CC2)N(C)CC4", 11.1),
    ("COc1cc2c(cc1OC)[C@@H](Cc1ccc(Oc3cc(C[C@H]4c5cc(OC)c(OC)cc5CCN4C)ccc3OC)cc1)N(C)CC2", 5.64),
    ("COc1cc2c(cc1O)[C@@H](Cc1ccc(O)c(Oc3ccc(C[C@H]4c5cc(O)c(OC)cc5CCN4C)cc3)c1)N(C)CC2", 1.04),
]

Continue with the next compound.
query: Determine from records and report IC50 for COc1cc2c(cc1O)[C@@H](Cc1ccc(OC)c(Oc3ccc(C[C@H]4c5cc(O)c(OC)cc5CCN4C)cc3)c1)N(C)CC2
result: 5.6

----------
assay-target: D(1A) dopamine receptor (Rattus norvegicus)
experiment-description: Displacement of [3H]SCH23390 from dopamine D1 receptor in Wistar rat striatal membrane by liquid scintillation counting
Here, each record is paired with measured IC50 data.
Write the answer as a number in µM, unit excluded.

Look over these answered cases.
# molecule, assay-target, unit-string, IC50
measured = [
    ("COc1ccc2cc1Oc1ccc(cc1)C[C@H]1c3c(cc(OC)c(OC)c3Oc3cc4c(cc3OC)CCN(C)[C@@H]4C2)CCN1C", "D(1A) dopamine receptor (Rattus norvegicus)", "µM", 39.1),
    ("COc1cc2c3cc1Oc1c(O)c(OC)cc4c1[C@@H](C(=O)c1ccc(O)c(c1)-c1cc(ccc1OC)C[C@H]3N(C)CC2)N(C)CC4", "D(1A) dopamine receptor (Rattus norvegicus)", "µM", 90.2),
    ("COc1ccc2cc1Oc1ccc(cc1)C[C@H]1c3cc(c(OC)cc3CCN1C)Oc1c(OC)c(OC)cc3c1[C@@H](C2)N(C)CC3", "D(1A) dopamine receptor (Rattus norvegicus)", "µM", 33.3),
]

Now consider the entry below.
query: Fetch value of IC50 on D(1A) dopamine receptor (Rattus norvegicus) for COc1ccc2cc1Oc1ccc(cc1)C[C@@H]1c3c(cc(OC)c(O)c3Oc3cc4c(cc3OC)CCN(C)[C@H]4C2)CCN1C (racemic) .
result: 15.4
